Tested on: L1210 leukemia ip in BDF1 mice, survival T/C
Assay: NCI In Vivo Anticancer Drug Screen. Data for tumor model L1210 Leukemia (intraperitoneal) in B6D2F1 (BDF1) mice
Conditions: endpoint: mean survival time; dose: 200.0 mg/kg/injection; schedule: Q01DX001 (ip); vehicle: saline
Inconclusive results and toxic doses are left out. Cut-off read from the data, not from the text of the source: active = T/C of 150% or more; inactive = T/C below 125%.
Allowed answers: active, inactive

# count of solved cases: 10
Recorded test call requested for C[n+]1ccc(Nc2ccc(NC(=O)c3ccc(Nc4cc[n+](C)c5ccc(N)cc45)cc3N)cc2)cc1
active

Okay, and CC(/C=C/c1ccccc1)=N\NC(=O)NN ?
inactive

Okay, and CC(=O)NC(Cc1ccsc1)(C(=O)O)C(=O)O ?
inactive

Okay, and c1cc[n+](CC[n+]2ccccc2)cc1 ?
inactive

Okay, and CCCCOC(=O)c1[nH]cnc1N ?
inactive

Okay, and COc1cc2c3c(c1O)C1(C=CC(=O)C=C1)CC3N(C)CC2 (configuration not stated) ?
inactive

Okay, and Cc1ccc(CCn2cnc3c(=S)nc[nH]c32)cc1 ?
inactive

Okay, and CC(NC(=O)C(NC(=O)c1cnc2ccccc2n1)C(C)C)C(=O)O (configuration not stated) ?
inactive

Okay, and N#CC1(C(N)=O)OC12CCS(=O)(=O)c1ccccc12 (configuration not stated) ?
inactive

Okay, and O=C(CCCC(=O)N/N=C/c1ccc(I)cc1)N/N=C\c1ccc(I)cc1 ?
inactive

Further cases:
Recorded test call requested for COc1ccccc1CN1CCCN(Cc2ccccc2OC)C1c1ccccc1
inactive

Okay, and COc1ncnc(=O)[nH]1 ?
inactive

* * *

System: L1210 leukemia ip in BDF1 mice, survival T/C
Test: NCI In Vivo Anticancer Drug Screen. Data for tumor model L1210 Leukemia (intraperitoneal) in B6D2F1 (BDF1) mice
Conditions: endpoint: mean survival time; dose: 400.0 mg/kg/injection; schedule: Q01DX009 (ip); vehicle: Klucel (hydroxypropylcellulose) (HPC); higher = longer survival
Inconclusive results and toxic doses are left out.
quantity: T/C

// worked examples, T/C included
I'm curious: which T/C was measured for Cc1ccc(C(Br)C2=CC(C)(C)c3ccccc3C2=O)cc1 (configuration not stated) tested on L1210 leukemia ip in BDF1 mice, survival T/C?
98 % of control

Okay, and Cc1ccc(NC(=S)N(CCC#N)C2CCCCC2)cc1 ?
101 % of control

Okay, and CC(C)(COC(=O)c1ccccc1)COC(=O)c1ccccc1 ?
93 % of control

Okay, and Cc1ccc(Cl)cc1NS(=O)(=O)c1cc(Cl)c(Cl)cc1Cl ?
94 % of control

Okay, and COc1ccc(/C=C(\C#N)c2ccc(OC)cc2)cc1 ?
96 % of control

Further cases:
I'm curious: which T/C was measured for Cc1cc(C)cc(OC(=O)Nc2ccccc2Cl)c1 tested on L1210 leukemia ip in BDF1 mice, survival T/C?
86 % of control

Okay, and Cc1cc2oc(/C=N/O)c(C)c2cc1C ?
90 % of control

Okay, and Cc1cc([N+](=O)[O-])c(N/N=C/c2ccccc2Cl)c([N+](=O)[O-])c1 ?
95 % of control

Okay, and CC(C)(C)OC(=O)C(N)CC(N)=O (configuration not stated) ?
98 % of control

Okay, and OC(c1ccccc1)(c1c2ccccc2cc2ccccc12)C1CCC1 (configuration not stated) ?
96 % of control

Okay, and COc1cc(NC(=O)Nc2cccc(C(C)=O)c2)c(OC)cc1Cl ?
110 % of control

Okay, and CCCCOC(=O)c1ccc(NC(=O)NC)cc1 ?
101 % of control
